Measured values drawn from patent US7842469B2 for this set.

Some molecules, each annotated with its measured Activity (relative to RLuc) bdc.
# assay procedure: Luciferase activity of purified RLuc mutants (light output integrated over 10 s, luminometer)
# Format: biochemical
# measurement setup: bisdeoxycoelenterazine; relative to native enzyme
Give a plain numeric answer without units written out.

F33R/I34M/C124A: RLuc mutant F33R/I34M/C124A (protein) MASKVYDPEQRKRMITGPQWWARCKQMNVLDSRMNYYDSEKHAENAVIFLHGNAASSYLWRHVVPHIEPVARCIIPDLIGMGKSGKSGNGSYRLLDHYKYLTAWFELLNLPKKIIFVGHDWGAALAFHYSYEHQDKIKAIVHAESVVDVIESWDEWPDIEEDIALIKSEEGEKMVLENNFFVETMLPSKIMRKLEPEEFAAYLEPFKEKGEVRRPTLSWPREIPLVKGGKPDVVQIVRNYNAYLRASDDLPKMFIESDPGFFSNAIVEGAKKFPNTEFVKVKGLHFSQEDAPDEMGKYIKSFVERVLKNEQ	0.20

Note: attention shifts to another entry.
Task: Record request: Activity (relative to RLuc) bdc value, item C124A/G229E: RLuc mutant C124A/G229E (protein) MASKVYDPEQRKRMITGPQWWARCKQMNVLDSFINYYDSEKHAENAVIFLHGNAASSYLWRHVVPHIEPVARCIIPDLIGMGKSGKSGNGSYRLLDHYKYLTAWFELLNLPKKIIFVGHDWGAALAFHYSYEHQDKIKAIVHAESVVDVIESWDEWPDIEEDIALIKSEEGEKMVLENNFFVETMLPSKIMRKLEPEEFAAYLEPFKEKGEVRRPTLSWPREIPLVKGEKPDVVQIVRNYNAYLRASDDLPKMFIESDPGFFSNAIVEGAKKFPNTEFVKVKGLHFSQEDAPDEMGKYIKSFVERVLKNEQ
Result: 0.01
